# Target Of Assay: T1, RADIL, Q96JH8
# T1 sequence (Q96JH8 971-1071, limits assumed, looked up): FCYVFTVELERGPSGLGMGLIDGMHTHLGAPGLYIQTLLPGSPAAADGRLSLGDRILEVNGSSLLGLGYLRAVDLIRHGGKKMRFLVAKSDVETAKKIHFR
# Experiment Description: holdup assay
# Set-up: key: below the threshold = too weak to quantify, mostly under pKd 3.1 to 4
# Run Parameters: plain residues with an end cap or a label only (N-terminal biotin on a linker: ado-ado)
Readout Kind: pKd

>>> recorded_value("SKQFDKNAYV [CLDN10, P78369]")
4.18
>>> recorded_value("GDSSRKEYFI [GYPC, P04921]")
4.43
>>> recorded_value("THREVKFTSL [CD46, P15529]")
3.49
>>> recorded_value("TKEIPNCTSV [SORCS3, Q9UPU3]")
4.05
